Listing: log10 Kd of selected binders
# assayed target: T1, human PCSK9 (PCSK9 antigen, SEQ ID NO. 53) (human, UniProt A8T644 31-152; Q8NBP7 153-692, Biotin-labelled on amines in the MSD-SET and sorting experiments; positions not given.)
# T1 construct: Biotin-labelled in MSD-SET; also called PCSK9-WT; PCSK9 protein
# method: MSD-SET, Fab with biotin-PCSK9 in solution, IgG on plate, pH 6.0
Log scale reminder: Kd in pM, then log10 taken.

>  <binder>
ADI-10088 Fab (Fab, V domains shown) VH: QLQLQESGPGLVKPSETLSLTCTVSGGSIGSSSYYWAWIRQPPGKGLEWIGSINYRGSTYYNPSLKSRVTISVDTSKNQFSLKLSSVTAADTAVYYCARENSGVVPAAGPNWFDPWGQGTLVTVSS VL: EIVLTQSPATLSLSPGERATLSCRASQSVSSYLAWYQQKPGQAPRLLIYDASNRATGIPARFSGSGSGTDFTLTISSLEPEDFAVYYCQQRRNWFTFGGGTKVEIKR

>  <log10 Kd>
1.20

$$$$

Then there is this binder:
# lookup: log10 Kd of ADI-09111 Fab (Fab, V domains shown) VH: QLQLQESGPGLVKPSETLSLTCTVSGGSISSSSYYWGWIRQPPGKGLEWIGSIYYSGSTYYNPSLKSRVTISVDTSKNQFSLKLSSVTAADTAVYYCARENSGVVPAAGPNWFDPWGQGTLVTVSS VL: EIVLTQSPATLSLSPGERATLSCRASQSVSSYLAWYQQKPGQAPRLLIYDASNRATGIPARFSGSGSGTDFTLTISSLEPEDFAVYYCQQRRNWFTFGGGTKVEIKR
3.28
